- target.or.test.system: Fructose-bisphosphate aldolase (Mycobacterium tuberculosis (strain ATCC 25618 / H37Rv)) (UniProt P9WQA3)
- Sequence (P9WQA3 whole entry, looked up): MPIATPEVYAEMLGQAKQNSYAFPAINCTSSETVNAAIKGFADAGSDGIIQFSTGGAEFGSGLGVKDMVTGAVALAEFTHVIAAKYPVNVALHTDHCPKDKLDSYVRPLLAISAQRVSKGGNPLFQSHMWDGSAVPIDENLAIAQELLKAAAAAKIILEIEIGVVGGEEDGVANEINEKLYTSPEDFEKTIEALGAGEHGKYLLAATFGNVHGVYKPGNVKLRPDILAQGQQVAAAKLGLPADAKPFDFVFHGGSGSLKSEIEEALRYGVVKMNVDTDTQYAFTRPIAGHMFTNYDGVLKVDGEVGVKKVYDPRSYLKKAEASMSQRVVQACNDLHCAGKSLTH
- measurement.protocol: Mtb FBA enzyme inhibitors, primary screen, biochemical, fluorescence, strain H37Rv (AID 588726);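 note: 0% = vehicle and 100% = reference inhibitor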
- recorded.conditions: purified M. tuberculosis FBA, fluorescence read-out, at 1 µM, hits give high values
Out of some 360,000 compounds screened, about 8,200 (2.3%) were called active. What follows is part of a selection rich in actives, with near analogues and random picks from the rest.
We begin with a simple list: items and their reported inhibition.
Provide only the numeric value, understood in %.

# example entries with known answers
Lab note: CC(C)c1cc(C(=O)N(C)C2CCCN(Cc3ccccc3F)C2)n(C)n1 (stereo not given) gave inhibition of 2.62

// `COc1ccc(NC(=O)CN(C)C(=O)c2cc(C)oc2C)cc1` : inhibition value = 0.68

# context switch: different compound, same inhibition
Summary for this compound, `O=[N+]([O-])c1cccc(Nc2c3ccccc3nc3ccccc23)c1` : inhibition is 122

====

- target.or.test.system: Fructose-bisphosphate aldolase (Mycobacterium tuberculosis (strain ATCC 25618 / H37Rv)) (UniProt P9WQA3)
- measurement.protocol: Mtb FBA enzyme inhibitors, primary screen, biochemical, fluorescence, strain H37Rv (AID 588726);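 note: 0% = vehicle and 100% = reference inhibitor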
- recorded.conditions: purified M. tuberculosis FBA, fluorescence read-out, at 1 µM
Among all 360,000 compounds or so, about 8,200 (2.3%) were called active. Cut-off read from the data, not from the text of the source: active = inhibition above about 27%; inactive = the rest. The full list was thinned out, with actives kept by preference.
Form entry, call: pick from true (1) (active), false (0) (inactive)

Query: GET /call?item= `O=S(=O)(NCCSc1ccccn1)c1ccc(Cl)cc1` returns the recorded outcome of this test.
Response: false (0)

New cases:
Query: Assay result, entry `Cc1cc(-c2ccccc2)nc(N2CCC(C(=O)NC34CC5CC(CC(C5)C3)C4)CC2)n1` — outcome?
Response: true (1)

Query: Test call for this compound, please: `CCOC(=O)c1c(C)c(C(=O)NCCc2ccc(S(N)(=O)=O)cc2)c(C)n1CC`
Response: false (0)

Query: What was the test verdict on `CSCC[C@H](NC(=O)N1CCn2c1nc1ccccc12)C(=O)NC1CCCCC1` ?
Response: false (0)

Query: What was the test verdict on `CC(=O)N1CCC(C(=O)Nc2nc(-c3ccccc3)ns2)CC1` ?
Response: false (0)

Query: I'd appreciate the recorded outcome for `CCCNC(=O)c1c(N)n(-c2ccc(S(N)(=O)=O)cc2)c2nc3ccccc3nc12` from this test.
Response: true (1)

Query: Given `CC(=O)N1CCSc2ccc(S(=O)(=O)N3CCC(C)CC3)cc21` , state the outcome it received in this test.
Response: false (0)

Query: Entry `O=C(NNC(=O)C1CCN(c2ncccn2)CC1)c1ccccc1` : call = ?
Response: false (0)

Query: Name the outcome recorded for `Cc1noc(C)c1C(=O)NCCc1ccc(S(N)(=O)=O)cc1` in the assay.
Response: false (0)

Query: Please share the test call associated with `O=C(NCCCN1CCOCC1)c1ccccc1NS(=O)(=O)c1ccc(Br)cc1` .
Response: false (0)

====

- target.or.test.system: Fructose-bisphosphate aldolase (Mycobacterium tuberculosis (strain ATCC 25618 / H37Rv))
- measurement.protocol: Mtb FBA enzyme inhibitors, primary screen, biochemical, fluorescence, strain H37Rv (AID 588726);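 note: 0% = vehicle and 100% = reference inhibitor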
- recorded.conditions: purified M. tuberculosis FBA, fluorescence read-out, at 1 µM
Hit rate of the full screen: of about 360,000 compounds, about 8,200 (2.3%) were called active. No stated cut-off is given here; in the data, active means inhibition above about 27%; inactive means the rest. The entries come from a sample that favours actives as a whole.
Answer with one of the outcomes given here: active, inactive

Observe how each entry below is paired with its result.
Query: Called result for `CC(=O)N1CCN(C(=O)c2cc(-c3ccc(Cl)s3)nc3ccccc23)CC1`
Response: active

Query: I'd appreciate the recorded outcome for `CCCCn1c(SCc2ncc(-c3ccccc3)o2)nc2cc(S(N)(=O)=O)ccc21` from this test.
Response: inactive

Query: Fill in: this test's call for `Cc1cccc(C(=O)N2CCC(c3nc4ccccc4s3)CC2)c1` is ___
Response: inactive

Query: Tell me the assay call for CC1CCCN(C(=O)c2cc(-c3ccco3)nc3ccccc23)C1 (stereo not given) please.
Response: active

Query: Just curious, what result did `Cc1cc(C(=O)N2CCN(c3ccccn3)CC2)c(C)o1` get here?
Response: inactive

Query: In this assay, the call recorded for `O=C(NNC(=O)c1cc(-c2ccccc2Cl)nc2ccccc12)c1csc(N2CCOCC2)n1` was what?
Response: inactive

Query: # fetch the recorded call for `Cc1c(NC(=O)c2cc(-c3ccc(Cl)s3)nc3ccccc23)c(=O)n(-c2ccccc2)n1C` here
Response: inactive

Query: What call does the record list for CCOc1ccccc1C(=O)NC1CC2CCCC(C1)N2Cc1ccccc1 (stereo not given) ?
Response: inactive

Query: Entry `O=C(c1cc(-c2ccc(Cl)s2)nc2ccccc12)N1CCOCC1` : call = ?
Response: active

# next compound below
Query: I'd appreciate the recorded outcome for CC1CCCC(NC(=O)c2cc(-c3ccncc3)nc3ccccc23)C1C (stereo not given) from this test.
Response: inactive

====

- target.or.test.system: Fructose-bisphosphate aldolase (Mycobacterium tuberculosis (strain ATCC 25618 / H37Rv))
- measurement.protocol: Mtb FBA enzyme inhibitors, primary screen, biochemical, fluorescence, strain H37Rv (AID 588726);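 note: 0% = vehicle and 100% = reference inhibitor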
- recorded.conditions: purified M. tuberculosis FBA, fluorescence read-out, at 1 µM, hits give high values
Screen size: about 360,000 compounds; about 8,200 (2.3%) were called active. The full list was thinned out, with actives kept by preference.
Catalogue of inhibition values

Some entries whose results are on file:
Record COc1ccc(C2CC(c3cccs3)=NN2c2ccc(F)cc2)cc1OC (stereo not drawn) . Reported inhibition: 27.2% (active)

Looking up `CCOC(=O)c1oc2c(CN3CCN(C)CC3)c(O)ccc2c(=O)c1-c1ccc(Br)cc1` , I found its inhibition recorded as -0.95% (inactive)

inhibition in this record for `Cc1ccc(NC(=O)CCCNC(=O)c2ccc(Cl)cc2)cc1S(=O)(=O)N1CCOCC1` : 1.07% (inactive)

Others:
The value of inhibition measured for the molecule `O=C(c1c(F)cccc1F)N1CCN(c2ncc(Br)cn2)CC1` turned out to be -0.3% (inactive)

# inhibition (molecule: `N#Cc1ccccc1S(=O)(=O)N1CCN(Cc2c(O)ccc3ccccc23)CC1` ) is 2.66% (inactive)

Entry `O=c1c(-c2ccccc2)coc2c(CN3CCOCC3)c(O)ccc12` , inhibition reported as 36.3% (active)

Lab book: inhibition of `Cc1ccc2c(CN3CCN(S(=O)(=O)c4ccccc4C(F)(F)F)CC3)cc(=O)oc2c1` noted as 2.71% (inactive)

Notebook: `CCCCCC(=O)Nc1ccc(-c2cn3cccnc3n2)cc1` , inhibition read as 131% (active)

Note to self: inhibition recorded for O=C1C2C3C=CC(C3)C2C(=O)N1c1ccc(S(=O)(=O)Nc2nccs2)cc1 (stereo not drawn) was -2.35% (inactive)

Reported inhibition for `O=c1c(-c2ccccc2)coc2cc(O)ccc12` was 32.2% (active)

The molecule identified as COc1cccc(CNC(=O)C(=O)NCCC2CCCCN2S(=O)(=O)c2ccc(C)cc2)c1 (stereo not drawn) registered its inhibition at 1.18% (inactive)

====

- target.or.test.system: Fructose-bisphosphate aldolase (Mycobacterium tuberculosis (strain ATCC 25618 / H37Rv)) (UniProt P9WQA3)
- measurement.protocol: Mtb FBA enzyme inhibitors, primary screen, biochemical, fluorescence, strain H37Rv (AID 588726);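 note: 0% = vehicle and 100% = reference inhibitor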
- recorded.conditions: purified M. tuberculosis FBA, fluorescence read-out, at 1 µM, hits give high values
About 8,200 (2.3%) of roughly 360,000 compounds were called active. This excerpt belongs to a sample that is enriched for actives.
reported.property: inhibition (%)
State the answer as a number, implicitly in %.

Summary for this compound, `Clc1ccc(C=NC23CN4CN(CN(C4)C2)C3)cc1` : inhibition is 1.62

Measured inhibition, COc1ccc(NC(=O)N2CCCC(C(=O)Nc3ccccc3OC)C2)cc1 (stereo not given) : 1.71

inhibition reported for this compound `Cc1nc2ccccc2c(C(=O)O)c1-c1ccccn1` : -2.32

Record summary for `CN1CCC2(CC1)NC(=O)NC2=O` : reported inhibition = 0.25

compound `CCc1ccc(-c2cc(C(=O)NN3CCN(C)CC3)c3ccccc3n2)cc1` , inhibition observed: 0.75

***
Please fill in: inhibition reported for COC(=O)C1=CO[C@@H](O[C@@H]2O[C@H](CO)[C@@H](O)[C@H](O)[C@H]2O)C2C1C[C@H](O)[C@@H]2C (stereo not given in full) = -0.2

response.value for CC(C)CCNC(=O)CC1C(=O)N(Cc2ccccc2)C(C)c2nc3ccccc3n21 (stereo not given) (field: inhibition) = -2.2

Sample `Cc1ccc(-n2nc(-c3ccco3)cc2C(=O)NCc2cccnc2)cc1` ; inhibition observed: -1.53

// field: inhibition; key: `CCOCCCNC(=O)c1c[nH]c2cc(C)ccc2c1=O` ; value = 4.52

Lab book: inhibition of `NC(=O)CC[C@@H]1NC(=O)[C@@H]2CCCN2C(=O)c2cc([N+](=O)[O-])cc(F)c2NCCC[C@@H](C(N)=O)NC1=O` noted as -3.88
